ASSAY SYSTEM: HLA-B*58:01
PROCEDURE TEXT: IEDB peptide-MHC binding, purified MHC/competitive/radioactivity; filed as Kd, often an IC50 or EC50 that approximates it; bounds were set here for any values at or beyond the usual limits of such assays
EXPERIMENTAL CONDITIONS: source organism: Dengue virus 4 Philippines/H241/1956
MEASURED ATTRIBUTE: pKd
Answers are plain numbers, as −log10 of the molar value.

Which pKd is reported for this sequence? `LAIPVTMTL`
8.87

---

ASSAY SYSTEM: HLA-B*08:01
PROCEDURE TEXT: IEDB peptide-MHC binding, purified MHC/competitive/radioactivity; filed as Kd, often an IC50 or EC50 that approximates it; bounds were set here for any values at or beyond the usual limits of such assays
EXPERIMENTAL CONDITIONS: source organism: Dengue virus 3 Martinique/1243/1999
MEASURED ATTRIBUTE: pKd
Numbers only, as −log10 of the molar value.

Study these solved cases before continuing.
LRKLTSRENL :: 5.31
TPMLRHTIE :: 8.47
LATLRKLCI :: 6.44
KRRLRTLIL :: 6.00
EKWKKKLNQL :: 6.22

The record that follows has no pKd shown yet.
Which pKd is reported for this sequence? `MAGPLVAGGL`
5.97
